Target: human α1I T-type channels (Homo sapiens)
Construct: expressed in transfected cells; host or cells: HEK 293
Sequence (Q9P0X4 whole entry): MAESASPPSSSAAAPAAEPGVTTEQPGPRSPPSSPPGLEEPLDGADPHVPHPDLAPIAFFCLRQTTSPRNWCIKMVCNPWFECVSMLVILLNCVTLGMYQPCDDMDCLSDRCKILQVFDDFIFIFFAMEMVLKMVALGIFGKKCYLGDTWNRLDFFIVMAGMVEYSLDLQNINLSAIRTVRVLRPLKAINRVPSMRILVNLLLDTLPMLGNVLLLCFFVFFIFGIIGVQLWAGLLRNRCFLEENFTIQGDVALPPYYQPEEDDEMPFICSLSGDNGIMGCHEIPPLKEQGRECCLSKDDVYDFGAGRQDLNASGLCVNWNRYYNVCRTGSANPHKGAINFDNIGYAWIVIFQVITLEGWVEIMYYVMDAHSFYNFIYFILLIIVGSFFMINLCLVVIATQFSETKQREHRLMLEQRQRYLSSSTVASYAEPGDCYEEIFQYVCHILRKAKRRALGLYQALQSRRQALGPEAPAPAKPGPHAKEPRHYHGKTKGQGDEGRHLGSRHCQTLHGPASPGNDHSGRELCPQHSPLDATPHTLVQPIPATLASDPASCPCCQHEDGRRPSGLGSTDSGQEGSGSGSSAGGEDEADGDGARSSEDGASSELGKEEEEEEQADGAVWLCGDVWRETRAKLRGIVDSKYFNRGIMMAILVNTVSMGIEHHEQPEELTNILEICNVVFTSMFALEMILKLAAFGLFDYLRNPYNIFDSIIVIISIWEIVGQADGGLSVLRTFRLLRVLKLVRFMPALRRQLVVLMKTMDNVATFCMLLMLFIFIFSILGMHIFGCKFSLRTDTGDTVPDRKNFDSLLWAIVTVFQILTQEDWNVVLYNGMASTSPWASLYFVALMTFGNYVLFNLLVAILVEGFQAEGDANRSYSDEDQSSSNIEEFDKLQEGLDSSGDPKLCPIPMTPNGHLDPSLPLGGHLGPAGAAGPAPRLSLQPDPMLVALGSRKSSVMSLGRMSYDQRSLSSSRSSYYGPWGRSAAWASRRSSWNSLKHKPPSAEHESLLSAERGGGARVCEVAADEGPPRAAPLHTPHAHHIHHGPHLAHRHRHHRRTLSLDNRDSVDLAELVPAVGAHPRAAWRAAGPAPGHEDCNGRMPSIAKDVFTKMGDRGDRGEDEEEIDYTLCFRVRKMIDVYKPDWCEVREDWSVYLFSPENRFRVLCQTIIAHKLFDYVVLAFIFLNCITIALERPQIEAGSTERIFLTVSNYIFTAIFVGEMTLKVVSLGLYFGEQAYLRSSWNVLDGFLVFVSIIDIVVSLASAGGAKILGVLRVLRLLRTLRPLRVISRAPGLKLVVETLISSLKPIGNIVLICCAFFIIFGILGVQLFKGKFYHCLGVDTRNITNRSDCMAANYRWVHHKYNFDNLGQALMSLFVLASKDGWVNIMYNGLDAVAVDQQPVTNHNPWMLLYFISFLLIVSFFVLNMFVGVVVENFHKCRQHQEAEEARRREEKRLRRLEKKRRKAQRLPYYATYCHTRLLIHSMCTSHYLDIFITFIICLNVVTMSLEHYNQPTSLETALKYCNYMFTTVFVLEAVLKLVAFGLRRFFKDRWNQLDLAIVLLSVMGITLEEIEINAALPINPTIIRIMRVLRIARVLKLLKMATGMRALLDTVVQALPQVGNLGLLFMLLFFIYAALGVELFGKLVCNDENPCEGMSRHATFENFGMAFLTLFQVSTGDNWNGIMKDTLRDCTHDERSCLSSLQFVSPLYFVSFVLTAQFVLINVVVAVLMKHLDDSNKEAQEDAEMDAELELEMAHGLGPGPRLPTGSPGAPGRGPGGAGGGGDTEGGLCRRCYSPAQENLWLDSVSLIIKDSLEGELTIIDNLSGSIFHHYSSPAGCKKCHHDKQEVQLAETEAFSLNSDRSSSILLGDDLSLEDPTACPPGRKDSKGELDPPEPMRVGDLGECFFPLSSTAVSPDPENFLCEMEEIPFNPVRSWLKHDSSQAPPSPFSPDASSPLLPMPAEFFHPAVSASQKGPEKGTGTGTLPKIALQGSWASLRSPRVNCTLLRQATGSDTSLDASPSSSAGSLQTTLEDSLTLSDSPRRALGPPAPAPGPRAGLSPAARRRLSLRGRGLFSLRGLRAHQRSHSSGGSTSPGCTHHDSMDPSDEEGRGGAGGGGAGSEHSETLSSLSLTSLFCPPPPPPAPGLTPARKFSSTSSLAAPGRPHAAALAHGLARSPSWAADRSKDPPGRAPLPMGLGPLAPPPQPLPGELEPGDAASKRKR
Assay: T-type calcium channel block, whole cell patch clamp in HEK cells
Type: cell-based
Conditions: measured at 200 nM drug, mainly non-inactivated protocol
TEST READOUT: Kd
# output: numeric value plus its unit

Q) Consider the compound shown here: O=C(/C=C/c1ccc(F)c(Br)c1)N[C@@H](C(=O)NCCc1c[nH]c2ccc(F)cc12)c1ccccc1 [Compound 18] What is its recorded Kd?
A) 0.38 µM

###

Entries annotated with measured Kd
Molecular target: human α1I T-type channels (Homo sapiens)
Construct: expressed in transfected cells; host or cells: HEK 293
Test: T-type calcium channel block, whole cell patch clamp in HEK cells
Type: cell-based
Details: measured at 1 μM drug, mainly non-inactivated protocol

Here's what some known entries look like.
Q) Consider the molecule shown here: O=C(/C=C/c1ccc(F)c(Br)c1)N[C@H](C(=O)NCCc1c[nH]c2ccc(F)cc12)c1ccccc1 What is its recorded Kd?
A) 170 nM

Q) Consider the molecule shown here: O=C(/C=C/c1ccc(F)c(Br)c1)NC1(C(=O)NCCc2c[nH]c3ccc(F)cc23)CCCCC1 What is its recorded Kd?
A) 280 nM

Q) Consider the molecule shown here: COC(=O)N1CCC(NC(=O)/C=C/c2ccc(F)c(Br)c2)(C(=O)NCCc2c[nH]c3ccc(F)cc23)CC1 What is its recorded Kd?
A) 870 nM

Q) Consider the molecule shown here: O=C(/C=C/c1ccc(F)c(Br)c1)NC1(C(=O)NCCc2c[nH]c3ccc(F)cc23)CC1 What is its recorded Kd?
A) 460 nM

Q) Consider the molecule shown here: O=C(/C=C/c1ccc(F)c(Br)c1)NC1(C(=O)NCCc2c[nH]c3ccc(F)cc23)CCNCC1 What is its recorded Kd?
A) 180 nM

Q) Consider the molecule shown here: CC(C)(NC(=O)/C=C/c1ccc(F)c(Br)c1)C(=O)NCCc1c[nH]c2ccc(F)cc12 What is its recorded Kd?
A) 480 nM

Q) Consider the molecule shown here: O=C(/C=C/c1ccc(F)c(Br)c1)NC1(C(=O)NCCc2c[nH]c3ccc(F)cc23)CCN(C(=O)C(F)(F)F)CC1 What is its recorded Kd?
A) 210 nM

Q) Consider the molecule shown here: O=C(/C=C/c1ccc(F)c(Br)c1)NC1(C(=O)NCCc2c[nH]c3ccc(F)cc23)CCCC1 What is its recorded Kd?
A) 390 nM

---
Q) Consider the molecule shown here: NCC(=O)N1CCC(NC(=O)/C=C/c2ccc(F)c(Br)c2)(C(=O)NCCc2c[nH]c3ccc(F)cc23)CC1 What is its recorded Kd?
A) 440 nM

Q) Consider the molecule shown here: O=C(/C=C/c1ccc(F)c(Br)c1)NC1(C(=O)NCCc2c[nH]c3ccccc23)CCNCC1 What is its recorded Kd?
A) 30 nM

Q) Consider the molecule shown here: O=C(/C=C/c1ccc(F)c(F)c1)NC1(C(=O)NCCc2c[nH]c3ccc(F)cc23)CCNCC1 What is its recorded Kd?
A) 110 nM

Q) Consider the molecule shown here: CN1CCC(NC(=O)/C=C/c2ccc(F)c(Br)c2)(C(=O)NCCc2c[nH]c3ccc(F)cc23)CC1 What is its recorded Kd?
A) 330 nM

Q) Consider the molecule shown here: O=C(/C=C/c1ccc(F)cc1)NC1(C(=O)Nc2cc(C(F)(F)F)cc(C(F)(F)F)c2)CCNCC1 What is its recorded Kd?
A) 50 nM
